Biological target: T1, recombinant mouse VISTA (His-tagged) (mouse, UniProt Q9D659 33-191)
T1 construct: also called murine VISTA; mVISTA
T1 sequence (looked up): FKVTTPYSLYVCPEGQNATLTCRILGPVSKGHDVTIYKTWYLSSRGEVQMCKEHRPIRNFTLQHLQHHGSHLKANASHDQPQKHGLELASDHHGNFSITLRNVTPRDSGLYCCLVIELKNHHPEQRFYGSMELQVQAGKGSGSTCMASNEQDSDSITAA
Experiment: BLI (Octet), 1:1 global fit, His-tagged mouse VISTA captured
endpoint: koff

Below: 2 binders and their reported koff.
binder	koff
anti-VISTA clone V4-C31 IgG1 (antibody, V domains shown) VH: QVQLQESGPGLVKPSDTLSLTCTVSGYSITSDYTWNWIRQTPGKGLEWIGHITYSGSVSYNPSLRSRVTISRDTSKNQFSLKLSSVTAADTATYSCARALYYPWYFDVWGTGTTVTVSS VL: EIVLTQSPATLSLSPGERATLSCRASSSVGYIHWYQQKPGQAPRPLIYATYYRTTGIPARFSGSGSGTDNTLTISSLEPEDSAVYYCQQWSSYPPITFGGGTKLEVKR	< 1e-07 s⁻¹
anti-VISTA clone V4-C24 IgG1 (antibody, V domains shown) VH: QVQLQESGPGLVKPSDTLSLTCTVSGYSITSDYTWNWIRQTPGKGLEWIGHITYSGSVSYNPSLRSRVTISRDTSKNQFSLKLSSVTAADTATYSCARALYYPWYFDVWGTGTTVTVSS VL: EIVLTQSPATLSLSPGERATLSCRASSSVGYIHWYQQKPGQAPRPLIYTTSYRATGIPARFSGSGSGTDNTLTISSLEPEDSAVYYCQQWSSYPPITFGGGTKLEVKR	< 1e-07 s⁻¹

API: the following record is the query input.
[Q] Looking for the measured koff of anti-VISTA clone V4-C27 IgG1 (antibody, V domains shown) VH: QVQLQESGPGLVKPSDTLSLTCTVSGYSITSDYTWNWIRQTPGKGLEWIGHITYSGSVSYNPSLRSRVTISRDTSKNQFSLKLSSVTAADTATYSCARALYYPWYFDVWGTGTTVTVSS VL: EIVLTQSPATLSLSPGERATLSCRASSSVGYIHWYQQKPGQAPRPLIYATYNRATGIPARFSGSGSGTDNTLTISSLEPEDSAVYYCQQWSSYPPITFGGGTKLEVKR , can you help?
[A] < 1e-07 s⁻¹
